Entry source: patent US12365686B2

Measured bioavailability by item
- test-details: Pharmacokinetic evaluation of compounds in mice
- Format: in vivo
- reported-conditions: mouse, plasma; male CD-1 mice, IV 0.5 mg/kg, PO 2.5 mg/kg
Structures can show the parent of a compound that is named as a salt.

{"columns": ["molecule", "bioavailability"],
 "data": [
  ["Cc1cc(-c2ncc(CNc3nccn4c(-c5ccccc5)cnc34)cc2C)ccn1", "76.3%"],
  ["Cc1cc(-c2ncc(CNc3nccn4c(-c5cc(F)cc(F)c5)cnc34)cc2C)ccn1 [Compound 30 (hydrochloride)]", "98.8%"],
  ["Cc1cc(-c2ncc(CNc3nccn4c(-c5cc(F)cc(F)c5)cnc34)cc2OCCN(C)C)ccn1", "37.4%"],
  ["Cc1cc(-c2ncc(CNc3nccn4c(-c5cccc(F)c5)cnc34)cc2C)ccn1 [Compound 29 (hydrochloride)]", "89%"],
  ["Cc1cc(-c2ncc(CNc3nccn4c(-c5cc(F)cc(F)c5)cnc34)cc2F)ccn1 [Compound 36 (formate)]", "50.6%"],
  ["Cc1cc(-c2ncc(CNc3nccn4c(-c5cccc(Cl)c5)cnc34)cc2C)ccn1 [Compound 28 (hydrochloride)]", "66.6%"],
  ["Cc1cc(-c2ccc(CNc3nccn4c(-c5ccccc5)cnc34)cc2C#N)ccn1 [Compound 22 (formate)]", "71.9%"]
]}

====

Parameter: AUC(0-t). Scope: all listed entries.
- test-details: Pharmacokinetic evaluation of compounds in mice
- Type: in vivo
- reported-conditions: mouse, plasma; male CD-1 mice, PO 2.5 mg/kg; read-out: AUC0-last PO
Counter-ions that a name gives are not always drawn.

{"columns": ["compound", "value-unit", "AUC(0-t)"],
 "data": [
  ["Cc1cc(-c2ncc(CNc3nccn4c(-c5ccccc5)cnc34)cc2C)ccn1", "µM·h", 16.5],
  ["Cc1cc(-c2ncc(CNc3nccn4c(-c5cc(F)cc(F)c5)cnc34)cc2F)ccn1 [Compound 36 (formate)]", "µM·h", 7.23],
  ["Cc1cc(-c2ncc(CNc3nccn4c(-c5cc(F)cc(F)c5)cnc34)cc2OCCN(C)C)ccn1", "µM·h", 0.975],
  ["Cc1cc(-c2ncc(CNc3nccn4c(-c5cccc(Cl)c5)cnc34)cc2C)ccn1 [Compound 28 (hydrochloride)]", "µM·h", 15.1],
  ["Cc1cc(-c2ncc(CNc3nccn4c(-c5cc(F)cc(F)c5)cnc34)cc2C)ccn1 [Compound 30 (hydrochloride)]", "µM·h", 16.2],
  ["Cc1cc(-c2ncc(CNc3nccn4c(-c5cccc(F)c5)cnc34)cc2C)ccn1 [Compound 29 (hydrochloride)]", "µM·h", 17.3],
  ["Cc1cc(-c2ccc(CNc3nccn4c(-c5ccccc5)cnc34)cc2C#N)ccn1 [Compound 22 (formate)]", "µM·h", 11.9]
]}

====

- test-details: Pharmacokinetic evaluation of compounds in mice
- Format: in vivo
- reported-conditions: mouse, plasma; male CD-1 mice, IV 0.5 mg/kg; read-out: T1/2 IV (converted)
Structures can show the parent of a compound that is named as a salt.
observed-property: half-life (h)

{"columns": ["compound", "value-unit", "endpoint-value"],
 "data": [
  ["Cc1cc(-c2ncc(CNc3nccn4c(-c5cccc(F)c5)cnc34)cc2C)ccn1 [Compound 29 (hydrochloride)]", "h", 2.78],
  ["Cc1cc(-c2ccc(CNc3nccn4c(-c5ccccc5)cnc34)cc2C#N)ccn1 [Compound 22 (formate)]", "h", 3.13],
  ["Cc1cc(-c2ncc(CNc3nccn4c(-c5cc(F)cc(F)c5)cnc34)cc2F)ccn1 [Compound 36 (formate)]", "h", 3.05]
]}
